B1: RSAD1 (parent)
chain: YCNFNKYIPRRLEEAAMQKCLVTE

# Variants of: B1
# Protocol description: protein stability index of a GFP-peptide fusion (GPS, HEK-293T) (PSI 1-6); higher = more stable;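 note: lentivirally expressed fusions sorted by FACS into six bins by GFP to DsRed ratio, PSI derived from sequencing read proportions per bin multiplied by bin number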
# Condition parameters: c terminus: a fixed tail appended
Reported protein stability index maps to class as: bin A: < 2; bin B: ≥ 2 and < 3; bin C: ≥ 3

Please let me know in which category the item Y1A belongs.
bin B

# classify by protein stability index band: E13F
bin B

Record T23E — which class?
bin A

Lab log: C20R — assign protein stability index category
bin B

Lab log: E13P — assign protein stability index category
bin C

Which class does L21C fall in?
bin B

Given K6I , name the class its protein stability index places it in.
bin B

Which protein stability index band matches V22D ?
bin A

Looking at R11I , which class would you pick?
bin C

Form: Item = V22C ; Class = ?
bin B
